tested on: Vero cells; experiment: Cytotoxicity in Vero cells by Alamar Blue assay; type: cell-based, African green monkey; settings: 24 h
readout_name: CC50 (µM)
# unit: µM | format: bare number

compound: COc1cc(C2=NNC(c3ccc4c(c3)OCO4)C2)ccc1O (stereo not shown)
CC50 / µM: 154
//
compound: COc1ccc(C=C2SC(=NN=C(C)C(C)=NO)NC2=O)cc1
CC50 / µM: 40.3
//
compound: COc1cc(C2=NNC(c3ccc(Cl)cc3)C2)ccc1O (stereo not shown)
CC50 / µM: 123

Please supply the value of reported CC50 for the item COc1cc(C2=NNC(c3ccc(F)cc3)C2)ccc1O (stereo not shown)
132

Please supply the value of reported CC50 for the item CC(=NO)C(C)=NN=C1NC(=O)C(=Cc2ccc(O)cc2)S1
61.2

----------
test: Cytotoxicity in Vero cells by Alamar Blue assay; type: cell-based, African green monkey; conditions: African green monkey
readout_name: CC50 at 24 h

The following compounds have reported results that may help.
compound: CCc1nc(N)nc(N)c1-c1ccc(Cl)cc1 [Pyrimethamine, pyrimethamine, reference compound]
CC50 at 24 h: > 200 µM
--
compound: CC(=N/O)/C(C)=N\N=C1/NC(=O)/C(=C/c2ccc(C#N)cc2)S1 [Compound 11]
CC50 at 24 h: 53.2 µM
--
compound: CC(=NO)C(C)=NN=C1NC(=O)/C(=C/c2ccccc2O)S1 [Compound 9]
CC50 at 24 h: > 160 µM

Please supply the value of reported CC50 at 24 h for the item CC(=N/O)/C(C)=N\N=C1\NC(=O)/C(=C/c2cc3ccccc3[nH]c2=O)S1 [Compound 15]
> 160 µM

----------
Documented pIC50 across a set of molecules
test system: T. gondii RH GFP tachyzoites; assay: T. gondii RH GFP tachyzoite viability following 3 h pretreatment of parasites; type: cell-based, Toxoplasma gondii; details: tachyzoites pretreated 3 h, read 72 h post-infection; read-out: Tachyzoite Pre-Treatment IC50
pIC50 is defined as minus the log10 of a concentration measured in mol/L.

The following molecules have reported results that may help.
molecule: COc1cc(C2=NNC(c3ccc4c(c3)OCO4)C2)ccc1O (stereo not drawn)
pIC50: 4.50

molecule: CC(=N/O)/C(C)=N\N=C1/NC(=O)/C(=C/c2ccc(O)c(O)c2)S1
pIC50: 4.70

molecule: CC(=NO)C(C)=NN=C1NC(=O)C(=Cc2ccc(O)cc2)S1
pIC50: 5.31

Please supply the value of reported pIC50 for the item COc1ccc(C=C2SC(=NN=C(C)C(C)=NO)NC2=O)cc1
5.24

Please supply the value of reported pIC50 for the item COc1cc(C2=NNC(c3ccc(F)cc3)C2)ccc1O (stereo not drawn)
4.63

Please supply the value of reported pIC50 for the item COc1cc(C2=NNC(c3ccc(Cl)cc3)C2)ccc1O (stereo not drawn)
5.18

----------
Documented IC50 across a set of compounds
system: T. gondii RH GFP tachyzoites; experiment: T. gondii RH GFP tachyzoite viability following 24 h pretreatment of host cells; assay type: cell-based, Toxoplasma gondii; settings: Toxoplasma gondii; Vero cells pretreated 24 h, read 72 h post-infection; read-out: Host Cell Pre-Treatment IC50
# unit: µM | format: bare number

compound: CC(=NO)C(C)=NN=C1NC(=O)/C(=C/c2ccccc2O)S1
unit_text: µM
IC50: 10.7

compound: CC(=N/O)/C(C)=N\N=C1\NC(=O)/C(=C/c2cc3ccccc3[nH]c2=O)S1
unit_text: µM
IC50: 54.4

compound: CC(=N/O)/C(C)=N\N=C1/NC(=O)/C(=C/c2ccc(C#N)cc2)S1
unit_text: µM
IC50: 22.5

Then there is this compound:
Fill: IC50 (T. gondii RH GFP tachyzoites) for this compound CCc1nc(N)nc(N)c1-c1ccc(Cl)cc1 [Pyrimethamine, pyrimethamine, reference compound]
1
